experiment: pKa (selection of counterions); type: physicochemical; details: weakly basic nature of the compound
REPORTED_METRIC: pKa

// sample Cn1c(=O)ccc2ccc(F)c(CCNC[C@H]3CN(c4cnc5c(n4)NC(=O)CO5)C(=O)O3)c21 , its pKa was ~6.81

Taken from patent US20260027125A1.
